B1: EDARADD (parent)
chain: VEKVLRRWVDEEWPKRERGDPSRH

Variants of: B1
EXPERIMENTAL DETAILS: protein stability index of a GFP-peptide fusion (GPS, HEK-293T) (PSI 1-6); higher = more stable;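 also: lentivirally expressed fusions sorted by FACS into six bins by GFP to DsRed ratio, PSI derived from sequencing read proportions per bin multiplied by bin number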
CONDITION SUMMARY: c terminus: a fixed tail appended
PARAMETER: protein stability index
Reply briefly: the number, and no unit.

Fill blank: measured protein stability index of the variant `V9Q` is ____.
3.31

Would you mind doing `H24R` as well?
3.5

Would you mind doing `K15E` as well?
3.96

Would you mind doing `D10P` as well?
3.4

Would you mind doing `K15S` as well?
3.33

Would you mind doing `V1P` as well?
3.94

Would you mind doing `K3D` as well?
4.38

Would you mind doing `R7W` as well?
2.49

Would you mind doing `V9M` as well?
3.17

Would you mind doing `S22K` as well?
2.46

Would you mind doing `L5N` as well?
3.94

Would you mind doing `D10Y` as well?
2.59

Would you mind doing `S22F` as well?
1.83

Would you mind doing `R6F` as well?
2.76

Would you mind doing `H24W` as well?
1.84

Would you mind doing `R6C` as well?
3.06

Would you mind doing `R6K` as well?
3.86

Would you mind doing `P14R` as well?
3.06

Would you mind doing `K3T` as well?
2.14

Would you mind doing `P21K` as well?
3.46

Would you mind doing `V9C` as well?
2.72

Would you mind doing `R7F` as well?
3.61

Would you mind doing `R16S` as well?
2.58

Would you mind doing `P21F` as well?
2.28

Would you mind doing `E17H` as well?
3.27

Would you mind doing `W13S` as well?
3.54

Would you mind doing `W13M` as well?
2.62

Would you mind doing `V1F` as well?
1.98

Would you mind doing `D10G` as well?
3.39

Would you mind doing `G19E` as well?
3.14

Would you mind doing `H24Y` as well?
2.41

Would you mind doing `H24T` as well?
2.96

Would you mind doing `W8Y` as well?
3.12

Would you mind doing `R23T` as well?
2.58

Would you mind doing `D10N` as well?
2.71

Would you mind doing `D10T` as well?
2.74
